All figures here come from ChEMBL document CHEMBL1129665.

molecular target: Human immunodeficiency virus type 1 reverse transcriptase (Human immunodeficiency virus 1, UniProt Q72547, Y181C); assay: Inhibitory activity against HIV rRT activity in mutant HIV-1 strain resistant to Nevirapine (Y181C)
pIC50: −log10 of the molar value.
ENDPOINT_LABEL: pIC50

Answered examples (5):
{"columns": ["SMILES_TEXT", "ENDPOINT_LABEL", "READING"],
 "data": [
  ["COC(=O)c1cccn1S(=O)(=O)c1cc(Cl)ccc1N", "pIC50", 5.16],
  ["CCOC(=O)c1cccn1S(=O)(=O)c1cc(C)ccc1N", "pIC50", "< 4.70"],
  ["CCOC(=O)c1cccn1S(=O)(=O)c1cc(C)ccc1[N+](=O)[O-]", "pIC50", "< 4.70"],
  ["CCOC(=O)c1cccn1S(=O)(=O)c1cc(Cl)ccc1NC=O", "pIC50", "< 4.70"],
  ["CCOC(=O)c1cccn1S(=O)(=O)c1cc(Cl)ccc1NC(=O)CC", "pIC50", "< 4.70"]
]}

# evaluate next
Prompt line: Name the reported pIC50 value associated with the molecule C=CCOC(=O)c1cccn1S(=O)(=O)c1cc(Cl)ccc1N
Response line: 4.85

----------
Field: pIC50. Provide a value for each of the molecules that follow.
target: Human immunodeficiency virus type 1 reverse transcriptase (Human immunodeficiency virus 1, UniProt Q72547, L100I); test: Inhibitory activity against HIV rRT activity in HIV-1 mutant resistant to TIBO(L100I) strain
pIC50: −log10 of the molar value.

Answered examples (2):
{"columns": ["SMILES_TEXT", "ENDPOINT_LABEL", "READING"],
 "data": [
  ["CC(C)=CCN1Cc2cccc3nc(S)n(c23)C[C@H]1C", "pIC50", "< 4.70"],
  ["C=CCOC(=O)c1cccn1S(=O)(=O)c1cc(Cl)ccc1N", "pIC50", "< 4.70"]
]}

Prompt line: Name the reported pIC50 value associated with the molecule CCOC(=O)c1cccn1S(=O)(=O)c1cc(Cl)ccc1NC=O
Response line: < 4.70
